Measured LD50, listed per entry for reference.
EXPERIMENT NOTES: Acute toxicity
Format: in vivo
CONDITION CONTEXT: mouse, in vivo, po
Where a name gives a salt, the structure may show the parent alone.
MEASUREMENT LABEL: LD50

[[record]]
compound = "CN(C)CCOc1ccc(C(=O)c2cccnc2OCCN(C)C)cc1 [Test compound A, dihydrochloride hemihydrate]"
measurement_label = "LD50"
result = "> 1000 mg/kg"

[[record]]
compound = "CC(CN(C)C)Oc1ccc(C(=O)c2cccnc2OC(C)CN(C)C)cc1 (centres unmarked)"
measurement_label = "LD50"
result = "> 1000 mg/kg"

